The measurements presented in this section are drawn from patent US20240115557A1.

Tested on: SaCas9 (Staphylococcus aureus, UniProt J7RUA5)
Sequence (J7RUA5 whole entry): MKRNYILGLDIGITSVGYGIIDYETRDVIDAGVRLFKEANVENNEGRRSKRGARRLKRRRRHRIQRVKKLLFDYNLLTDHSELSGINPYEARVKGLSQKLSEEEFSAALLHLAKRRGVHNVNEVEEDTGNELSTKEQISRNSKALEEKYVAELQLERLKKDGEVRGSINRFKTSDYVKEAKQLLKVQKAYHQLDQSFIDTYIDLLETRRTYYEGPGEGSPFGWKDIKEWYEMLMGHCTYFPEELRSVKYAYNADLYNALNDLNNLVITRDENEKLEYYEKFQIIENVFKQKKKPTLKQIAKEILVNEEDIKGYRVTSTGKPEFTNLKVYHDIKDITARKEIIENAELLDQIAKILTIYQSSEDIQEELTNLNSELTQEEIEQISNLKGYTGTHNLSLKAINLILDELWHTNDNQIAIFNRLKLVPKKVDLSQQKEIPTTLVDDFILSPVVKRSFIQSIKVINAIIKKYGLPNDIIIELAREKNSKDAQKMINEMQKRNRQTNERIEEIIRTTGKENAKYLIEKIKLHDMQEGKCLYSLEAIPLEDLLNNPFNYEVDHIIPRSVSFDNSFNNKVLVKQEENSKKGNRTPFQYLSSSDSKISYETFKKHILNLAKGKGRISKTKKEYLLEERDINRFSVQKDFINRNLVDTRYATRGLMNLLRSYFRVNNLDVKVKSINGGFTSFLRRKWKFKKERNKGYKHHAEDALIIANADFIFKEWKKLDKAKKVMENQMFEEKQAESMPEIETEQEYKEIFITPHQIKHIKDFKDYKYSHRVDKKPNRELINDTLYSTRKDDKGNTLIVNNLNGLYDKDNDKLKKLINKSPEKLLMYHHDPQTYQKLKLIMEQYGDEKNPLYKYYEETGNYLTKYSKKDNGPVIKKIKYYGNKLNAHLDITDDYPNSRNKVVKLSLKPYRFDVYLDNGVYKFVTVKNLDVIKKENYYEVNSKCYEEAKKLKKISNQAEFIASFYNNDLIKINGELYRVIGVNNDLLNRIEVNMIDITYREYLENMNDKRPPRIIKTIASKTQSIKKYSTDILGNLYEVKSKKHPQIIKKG
Assay explanation: Strand displacement assay, SaCas9 primary screen
Type: biochemical
Condition set: SaCas9 primary screen, Auto Zscore, replicate 1
Parameter: Auto Zscore Rep 1
The response must contain the number and no unit.

Which Auto Zscore Rep 1 value is on record for O=C1c2cccc3cccc(c23)N1S(=O)(=O)c1cccs1 [Cpd T0503-3218] ? 1.379

Tell me the measured Auto Zscore Rep 1 of COc1cccc(CNCc2cccn2-c2sc(C)c(C)c2C(=O)O)c1 [Cpd C795-1664] , please. 0.429

Give its Auto Zscore Rep 1 value. Item: NC(=O)c1c(NC(=O)COCc2cc(-c3ccc4c(c3)OCO4)on2)sc2c1CCCC2 [Compound E613-0091] −0.4678

What value of Auto Zscore Rep 1 has been recorded for this entry: Cc1nnc(NC(=O)CSc2ccc3nnc(-c4ccc(F)cc4)n3n2)s1 [Cpd C742-0312] −0.0443

Dear colleague, I am looking for the recorded Auto Zscore Rep 1 of the following compound: Cc1occc1-c1nnc2sc(COc3ccc(Br)cc3)nn12 [Cpd D727-0114] 1.154
